Where do the numbers come from? From the supplement of paper PMC10126150.

Quick reference for switch fluorescence ratio among some sequences
# Test system: ATP;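 note: ATP exposure 15 min at 22 °C before imaging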
# ASSAY_SUMMARY: switch fluorescence ratio, 500 uM ATP over buffer (Cy3 cluster intensity, sum of 5 cycles each) (fold (ratio)); higher = stronger signal-on switching upon ATP binding; sequences stand for … in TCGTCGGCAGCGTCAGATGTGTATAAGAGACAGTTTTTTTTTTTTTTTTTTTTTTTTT…TC
# APPLIED_CONDITIONS: aptamer strand: ATP DNA aptamer (quencher-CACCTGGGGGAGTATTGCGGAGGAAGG + anchor), 100 nM annealed; ATP concentration: 500 uM
The response must contain the number and no unit.

| SEQUENCE_TEXT | MEASURE_NAME | NUMERIC_READOUT |
| --- | --- | --- |
| GGCTATCTTT | switch fluorescence ratio | 1 |
| GTTTGAGATA | switch fluorescence ratio | 0.971 |
| TAGTGTATTA | switch fluorescence ratio | 1.01 |
| AATCTCGTGG | switch fluorescence ratio | 0.995 |
| GTTGGGTTTT | switch fluorescence ratio | 1.02 |
| GGGGGACTTA | switch fluorescence ratio | 0.998 |

Okay, next one:
Would you mind telling me what switch fluorescence ratio value was observed for TTTGGGTGCG ?
0.998
